- target-under-test: IDH1 R132C (Homo sapiens, UniProt O75874, R132C)
- Sequence (O75874 whole entry R132C): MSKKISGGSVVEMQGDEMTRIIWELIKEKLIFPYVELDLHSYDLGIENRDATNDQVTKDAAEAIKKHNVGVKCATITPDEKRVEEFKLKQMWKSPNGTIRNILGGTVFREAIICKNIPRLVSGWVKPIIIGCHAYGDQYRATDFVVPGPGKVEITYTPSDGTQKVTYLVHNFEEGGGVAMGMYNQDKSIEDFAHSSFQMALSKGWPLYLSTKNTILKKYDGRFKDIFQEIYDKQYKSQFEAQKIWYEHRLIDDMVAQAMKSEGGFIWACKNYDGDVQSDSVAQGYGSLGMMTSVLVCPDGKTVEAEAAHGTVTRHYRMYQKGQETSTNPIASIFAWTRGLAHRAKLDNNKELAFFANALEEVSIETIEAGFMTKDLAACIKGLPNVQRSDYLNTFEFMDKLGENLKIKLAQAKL
- experimental-protocol: IDH1 R132C enzymatic assay (NADPH depletion coupled to diaphorase/resazurin)
- Type: biochemical
- setup-conditions: IDH1 R132C enzymatic inhibition, IC50 class
quantity-kind: IC50

CCc1ncc(F)cc1-n1c(C=C(C)C)c(C(=O)N2CCNCC2)cc(-c2nc(-c3ccc(C(F)F)cn3)cs2)c1=O = 1000 to 5000 nM
CCc1cccc(CC)c1-n1c(CC(C)C)c(C(=O)NC[C@H](N)C(=O)O)cc(-c2nc(-c3ccc(Cl)cc3)cs2)c1=O = 300 to 1000 nM

Turning now to a further record.
Please look up its IC50: CCc1cccc(CC)c1-n1c(C=C(C)C)c(C(=O)N2CC3(CCNC3)C2)cc(-c2nc(-c3ccc(Cl)cc3)cs2)c1=O
< 300 nM
